Data provenance is the METLIN SMRT retention time set (Domingo-Almenara et al. 2019).

PROTOCOL TEXT: gradient 5% acetonitrile 3 min, to 50% in 2 min, to 85% in 15 min, held 3 min, 100 µL/min
ASSAY SETUP: column: Zorbax Extend-C18 2.1 x 50 mm; eluents: water / acetonitrile, 0.1% formic acid
// assign condition met if RP-LC retention time falls strictly below 700 s, else condition not met (ties count as condition not met)

Example entries begin here.
- COMPOUND: "COc1ccccc1-c1nc2cnccn2c1NCCC(=O)Nc1ccc2c(c1)OCCO2"
  LABEL: "condition met"
- COMPOUND: "Cc1ccc(Nc2c(-c3ccc(N4CCOCC4)cc3)nc3ncccn23)cc1Cl"
  LABEL: "condition not met"
- COMPOUND: "CCc1ccccc1NC(=O)C1CCCN(c2nc3c(s2)c(C)nn3-c2cccc(F)c2)C1 (stereo not drawn)"
  LABEL: "condition not met"
- COMPOUND: "CSc1ccc(-c2nc3ccc(Cl)cn3c2NC2CCCCC2)cc1"
  LABEL: "condition not met"
- COMPOUND: "COc1ccc(C(CC(=O)N2CCN(c3ccccn3)CC2)N2Cc3ccccc3C2=O)cc1OC (stereo not drawn)"
  LABEL: "condition met"

hey, is RP-LC retention time for `CN1CCCn2cc(S(=O)(=O)Nc3ccc(Cl)cc3F)cc2C1=O` lower than 700 s or not?
condition not met

hey, is RP-LC retention time for `COc1ccc(NC(=O)Cn2c(=O)c(CCC(=O)NCC(C)C)nc3ccccc32)c(OC)c1` lower than 700 s or not?
condition not met

hey, is RP-LC retention time for `CCc1nc2cccnc2n1CCN1CCN(C(=O)Nc2ccccc2Cl)CC1` lower than 700 s or not?
condition met

hey, is RP-LC retention time for N#CCNC(=O)C1CC(=O)N(CCc2c[nH]c3ccc(F)cc23)C1 (stereo not drawn) lower than 700 s or not?
condition met

hey, is RP-LC retention time for `CCCN(CC1CC1)C(=O)[C@@H]1[C@H](c2cc(OC)c(OC)c(OC)c2)c2cc3c(cc2[C@H](O)[C@H]1CO)OCO3` lower than 700 s or not?
condition not met
